- testedTarget: Klenow fragment lacking exonuclease activity (KF exo−) (Escherichia coli, UniProt P00582, D355A/E357A)
- Construct: enzyme solution of the Klenow fragment lacking exonuclease activity (KF exo^−, Amersham USB); purchased Amersham USB
- Sequence (P00582 324-928 D355A/E357A): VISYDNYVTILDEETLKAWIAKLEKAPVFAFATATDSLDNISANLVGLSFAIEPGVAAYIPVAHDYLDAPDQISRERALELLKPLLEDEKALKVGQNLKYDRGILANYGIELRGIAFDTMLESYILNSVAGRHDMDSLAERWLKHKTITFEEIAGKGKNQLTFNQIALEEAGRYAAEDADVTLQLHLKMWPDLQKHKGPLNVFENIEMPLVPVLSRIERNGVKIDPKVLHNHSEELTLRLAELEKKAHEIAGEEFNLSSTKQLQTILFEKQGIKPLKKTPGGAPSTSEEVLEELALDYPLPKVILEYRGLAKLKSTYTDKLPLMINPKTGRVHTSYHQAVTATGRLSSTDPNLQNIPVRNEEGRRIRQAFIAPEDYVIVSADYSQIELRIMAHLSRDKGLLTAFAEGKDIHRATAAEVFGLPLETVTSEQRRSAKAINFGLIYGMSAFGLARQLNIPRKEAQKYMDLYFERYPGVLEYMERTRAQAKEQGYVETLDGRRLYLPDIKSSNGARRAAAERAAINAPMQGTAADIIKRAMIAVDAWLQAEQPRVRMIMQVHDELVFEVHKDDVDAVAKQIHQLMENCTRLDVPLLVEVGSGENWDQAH
- Format: biochemical, E. coli
- details: template (N) = Ds, temp35N-1; 37° C.
measuredQuantity: Efficiency (Vmax/KM)

// query Return reported Efficiency (Vmax/KM); argument: `O=Cc1cccn1[C@H]1C[C@H](O)[C@@H](COP(=O)(O)OP(=O)(O)OP(=O)(O)O)O1`
// result 6.2 × 10^4 % min^−1M^−1

// query Return reported Efficiency (Vmax/KM); argument: Nc1ccn([C@H]2C[C@H](O)[C@@H](COP(=O)(O)OP(=O)(O)OP(=O)(O)O)O2)c(=O)n1 [dCTP, reference compound]
// result 8.3 × 10^2 % min^−1M^−1

// query Return reported Efficiency (Vmax/KM); argument: `NP(=O)(O)OP(=O)(O)OP(=O)(O)OC[C@H]1O[C@@H](n2cnc3c(-c4cccs4)ccnc32)C[C@@H]1O`
// result 9.9 × 10^3 % min^−1M^−1

// query Return reported Efficiency (Vmax/KM); argument: `CC#Cc1cc(C=O)n([C@H]2C[C@H](O)[C@@H](COP(=O)(O)OP(=O)(O)OP(=O)(O)O)O2)c1`
// result 2.6 × 10^5 % min^−1M^−1

----------
- testedTarget: Klenow fragment lacking exonuclease activity (KF exo−) (Escherichia coli, UniProt P00582, D355A/E357A)
- Construct: enzyme solution of the Klenow fragment lacking exonuclease activity (KF exo^−, Amersham USB); purchased Amersham USB
- Format: biochemical, E. coli
- details: template (N) = Pa, temp35N-2; 37° C.
- Method: The single nucleotide insertion experiment was performed as described in documents (Non-patent Documents 30-32). […] The diluted products were analyzed in an automated ABI377 DNA sequencer equipped with GeneScan software (version 3.0) (Non-patent Document 32). The relative velocity (v0) was calculated by dividing the extent of reaction by the reaction time, and then normalized to the enzyme concentration (20 nM) for the various enzyme concentrations used. […]
measuredQuantity: log10 of Km (log10 of the value in µM)
Each number you see is log10 of Km, and the unit inside the log is µM.

// query Return reported log10 of Km; argument: Nc1nc2c(ncn2[C@H]2C[C@H](O)[C@@H](COP(=O)(O)OP(=O)(O)OP(=O)(O)O)O2)c(=O)[nH]1 [dGTP, reference compound]
// result 2.68

// query Return reported log10 of Km; argument: Cc1cn([C@H]2C[C@H](O)[C@@H](COP(=O)(O)OP(=O)(O)OP(=O)(O)O)O2)c(=O)[nH]c1=O [dTTP, reference compound]
// result 2.94

// query Return reported log10 of Km; argument: `O=Cc1cccn1[C@H]1C[C@H](O)[C@@H](COP(=O)(O)OP(=O)(O)OP(=O)(O)O)O1`
// result 2.58

// query Return reported log10 of Km; argument: `NP(=O)(O)OP(=O)(O)OP(=O)(O)OC[C@H]1O[C@@H](n2cnc3c(-c4cccs4)ccnc32)C[C@@H]1O`
// result 2.26

// query Return reported log10 of Km; argument: `Nc1ncnc2c1ncn2[C@H]1C[C@H](O)[C@@H](COP(=O)(O)OP(=O)(O)OP(N)(=O)O)O1`
// result 3.08

// query Return reported log10 of Km; argument: `O=P(O)(O)OP(=O)(O)OP(=O)(O)OC[C@H]1O[C@@H](n2cnc3c(-c4cccs4)ccnc32)C[C@@H]1O`
// result 1.41

----------
I'd be grateful if you could share measured Vmax for these entries.
- testedTarget: Klenow fragment lacking exonuclease activity (KF exo−) (Escherichia coli, UniProt P00582, D355A/E357A)
- Construct: enzyme solution of the Klenow fragment lacking exonuclease activity (KF exo^−, Amersham USB); purchased Amersham USB
- Assay type: biochemical, E. coli
- details: template (N) = Ds, temp35N-1; 37° C.
# output: number + unit

// query Return reported Vmax; argument: `Nc1ncnc2c1ncn2[C@H]1C[C@H](O)[C@@H](COP(=O)(O)OP(=O)(O)OP(N)(=O)O)O1`
// result 0.048 % min^−1

// query Return reported Vmax; argument: Nc1ccn([C@H]2C[C@H](O)[C@@H](COP(=O)(O)OP(=O)(O)OP(=O)(O)O)O2)c(=O)n1 [dCTP, reference compound]
// result 0.34 % min^−1

// query Return reported Vmax; argument: `O=Cc1cccn1[C@H]1C[C@H](O)[C@@H](COP(=O)(O)OP(=O)(O)OP(=O)(O)O)O1`
// result 21 % min^−1

// query Return reported Vmax; argument: Cc1cn([C@H]2C[C@H](O)[C@@H](COP(=O)(O)OP(=O)(O)OP(=O)(O)O)O2)c(=O)[nH]c1=O [dTTP, reference compound]
// result 0.41 % min^−1

// query Return reported Vmax; argument: `CC#Cc1cc(C=O)n([C@H]2C[C@H](O)[C@@H](COP(=O)(O)OP(=O)(O)OP(=O)(O)O)O2)c1`
// result 21 % min^−1

// query Return reported Vmax; argument: `NP(=O)(O)OP(=O)(O)OP(=O)(O)OC[C@H]1O[C@@H](n2cnc3c(-c4cccs4)ccnc32)C[C@@H]1O`
// result 0.78 % min^−1

// query Return reported Vmax; argument: `O=P(O)(O)OP(=O)(O)OP(=O)(O)OC[C@H]1O[C@@H](n2cnc3c(-c4cccs4)ccnc32)C[C@@H]1O`
// result 1.6 % min^−1

----------
- testedTarget: Klenow fragment lacking exonuclease activity (KF exo−) (Escherichia coli, UniProt P00582, D355A/E357A)
- Construct: enzyme solution of the Klenow fragment lacking exonuclease activity (KF exo^−, Amersham USB); purchased Amersham USB
- Format: biochemical, E. coli
- details: template (N) = T, temp35N-2; 37° C.
measuredQuantity: Km (µM)
Give your result in µM as a bare value.

// query Return reported Km; argument: `O=P(O)(O)OP(=O)(O)OP(=O)(O)OC[C@H]1O[C@@H](n2cnc3c(-c4cccs4)ccnc32)C[C@@H]1O`
// result 45

// query Return reported Km; argument: `Nc1ncnc2c1ncn2[C@H]1C[C@H](O)[C@@H](COP(=O)(O)OP(=O)(O)OP(N)(=O)O)O1`
// result 13

// query Return reported Km; argument: Nc1nc2c(ncn2[C@H]2C[C@H](O)[C@@H](COP(=O)(O)OP(=O)(O)OP(=O)(O)O)O2)c(=O)[nH]1 [dGTP, reference compound]
// result 420

// query Return reported Km; argument: `NP(=O)(O)OP(=O)(O)OP(=O)(O)OC[C@H]1O[C@@H](n2cnc3c(-c4cccs4)ccnc32)C[C@@H]1O`
// result 480

----------
- testedTarget: Klenow fragment lacking exonuclease activity (KF exo−) (Escherichia coli, UniProt P00582, D355A/E357A)
- Construct: enzyme solution of the Klenow fragment lacking exonuclease activity (KF exo^−, Amersham USB); purchased Amersham USB
- Assay type: biochemical, E. coli
- details: template (N) = Pa′, temp35N-2; 37° C.
measuredQuantity: Efficiency (Vmax/KM)

// query Return reported Efficiency (Vmax/KM); argument: `O=P(O)(O)OP(=O)(O)OP(=O)(O)OC[C@H]1O[C@@H](n2cnc3c(-c4cccs4)ccnc32)C[C@@H]1O`
// result 8.8 × 10^5 % min^−1M^−1

// query Return reported Efficiency (Vmax/KM); argument: `CC#Cc1cc(C=O)n([C@H]2C[C@H](O)[C@@H](COP(=O)(O)OP(=O)(O)OP(=O)(O)O)O2)c1`
// result 4.1 × 10^4 % min^−1M^−1

// query Return reported Efficiency (Vmax/KM); argument: `Nc1ncnc2c1ncn2[C@H]1C[C@H](O)[C@@H](COP(=O)(O)OP(=O)(O)OP(N)(=O)O)O1`
// result 3.0 × 10^3 % min^−1M^−1

// query Return reported Efficiency (Vmax/KM); argument: Cc1cn([C@H]2C[C@H](O)[C@@H](COP(=O)(O)OP(=O)(O)OP(=O)(O)O)O2)c(=O)[nH]c1=O [dTTP, reference compound]
// result 1.0 × 10^2 % min^−1M^−1

// query Return reported Efficiency (Vmax/KM); argument: Nc1nc2c(ncn2[C@H]2C[C@H](O)[C@@H](COP(=O)(O)OP(=O)(O)OP(=O)(O)O)O2)c(=O)[nH]1 [dGTP, reference compound]
// result 5.5 × 10^2 % min^−1M^−1

// query Return reported Efficiency (Vmax/KM); argument: `NP(=O)(O)OP(=O)(O)OP(=O)(O)OC[C@H]1O[C@@H](n2cnc3c(-c4cccs4)ccnc32)C[C@@H]1O`
// result 5.7 × 10^4 % min^−1M^−1

----------
- testedTarget: Klenow fragment lacking exonuclease activity (KF exo−) (Escherichia coli, UniProt P00582, D355A/E357A)
- Construct: enzyme solution of the Klenow fragment lacking exonuclease activity (KF exo^−, Amersham USB); purchased Amersham USB
- Assay type: biochemical, E. coli
- details: template (N) = Pa′, temp35N-2; 37° C.
measuredQuantity: Km (µM)
Give your result in µM as a bare value.

// query Return reported Km; argument: CC#Cc1cc(C=O)n([C@H]2C[C@H](O)[C@@H](COP(=O)(O)OP(=O)(O)OP(=O)(O)O)O2)c1 [dPa′TP]
// result 190

// query Return reported Km; argument: Nc1nc2c(ncn2[C@H]2C[C@H](O)[C@@H](COP(=O)(O)OP(=O)(O)OP(=O)(O)O)O2)c(=O)[nH]1 [dGTP, reference compound]
// result 800

// query Return reported Km; argument: NP(=O)(O)OP(=O)(O)OP(=O)(O)OC[C@H]1O[C@@H](n2cnc3c(-c4cccs4)ccnc32)C[C@@H]1O [dDsTPN]
// result 230

// query Return reported Km; argument: Nc1ncnc2c1ncn2[C@H]1C[C@H](O)[C@@H](COP(=O)(O)OP(=O)(O)OP(N)(=O)O)O1 [dATPN]
// result 800

// query Return reported Km; argument: Cc1cn([C@H]2C[C@H](O)[C@@H](COP(=O)(O)OP(=O)(O)OP(=O)(O)O)O2)c(=O)[nH]c1=O [dTTP, reference compound]
// result 1400

// query Return reported Km; argument: O=P(O)(O)OP(=O)(O)OP(=O)(O)OC[C@H]1O[C@@H](n2cnc3c(-c4cccs4)ccnc32)C[C@@H]1O [dDsTP]
// result 24
